# TARGET DESC: T1, wt-ERα LBD (wild-type estrogen receptor α ligand-binding domain, amino acids 302–552) (human, UniProt P03372 302-552)
# T1 construct: also called wild-type ERα LBD; apo-ERα
# T1 sequence (looked up): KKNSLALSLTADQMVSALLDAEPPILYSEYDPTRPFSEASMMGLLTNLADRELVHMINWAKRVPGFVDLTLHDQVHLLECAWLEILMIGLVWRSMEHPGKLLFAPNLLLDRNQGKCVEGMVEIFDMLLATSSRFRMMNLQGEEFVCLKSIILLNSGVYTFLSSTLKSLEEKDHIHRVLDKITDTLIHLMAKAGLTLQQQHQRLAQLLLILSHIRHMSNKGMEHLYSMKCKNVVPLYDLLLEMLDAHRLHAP
# ASSAY: fluorescence polarisation; fluorescence anisotropy as a1, with α-ZA at 2 molar equivalents of the highest protein concentration
# MEASUREMENT CONDITIONS: both partners purified
pKd: −log10 of the molar value. Primed or numbered codes have the meaning given here. Where no end group is shown, it is not given here. fluorescein″ = fluorescein label on the peptide (N-terminal, fluorescein-labeled peptide)

[
  {
    "BINDER": "{fluorescein″}-RHKILHRLLQEGS (also called fluorescein-labeled SRC-1 NR2 peptide; SRC-1 NR2 peptide; source: synthetic peptide, bought: EZbiolab) [fluorescein-RHKILHRLLQEGS peptide corresponding to the NR box 2-binding motif of SRC-1]",
    "pKd": "≥ 6.00"
  }
]
